- tested_system: T1, recombinant human VEGF121 (human, UniProt P15692 27-147)
- T1 construct: mature; Isoform VEGF121 of the entry; also called hVEGF121
- T1 sequence (looked up): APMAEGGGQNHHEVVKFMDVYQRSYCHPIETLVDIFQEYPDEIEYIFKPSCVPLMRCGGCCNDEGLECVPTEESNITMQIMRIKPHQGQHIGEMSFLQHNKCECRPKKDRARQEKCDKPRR
- test: Biacore SPR, VEGF immobilized, pH 5
- Experimental: In this example, the Biacore-binding ability of scFvs was tested and the binding affinity was measured using the exemplary surface plasmon resonance method with BIAcore™-T100. […] The apparent dissociation rate constant (kd), the apparent association rate constant (kₐ) and the apparent dissociation equilibrium constant (KD) were calculated using one-to-one Langmuir binding model with BIAcore T100 evaluation Software version 1.1.
Listing of entries alongside the reported kon.
measurement_type: kon (M⁻¹ s⁻¹)

>  <binder>
509-min (scFv, VL and VH tied by name; also called Protein Nr; 854) scFv: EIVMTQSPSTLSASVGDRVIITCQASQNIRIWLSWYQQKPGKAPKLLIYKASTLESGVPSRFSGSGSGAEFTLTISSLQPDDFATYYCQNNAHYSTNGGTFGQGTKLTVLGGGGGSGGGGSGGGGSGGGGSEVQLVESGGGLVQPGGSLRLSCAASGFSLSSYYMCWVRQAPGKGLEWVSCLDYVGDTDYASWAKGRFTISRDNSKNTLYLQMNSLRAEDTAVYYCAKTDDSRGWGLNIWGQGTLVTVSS

>  <result>
354000

$$$$
>  <binder>
509-maxII (scFv, VH tied by name; also called Protein Nr) scFv: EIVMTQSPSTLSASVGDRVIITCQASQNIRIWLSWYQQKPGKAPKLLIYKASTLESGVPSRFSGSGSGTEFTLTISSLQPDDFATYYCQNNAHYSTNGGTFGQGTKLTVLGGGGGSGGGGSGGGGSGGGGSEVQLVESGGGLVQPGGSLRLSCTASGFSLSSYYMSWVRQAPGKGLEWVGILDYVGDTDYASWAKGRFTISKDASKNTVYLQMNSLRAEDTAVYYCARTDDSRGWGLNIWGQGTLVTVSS

>  <result>
897000

$$$$
>  <binder>
511-max (scFv, also called ESBA802) scFv: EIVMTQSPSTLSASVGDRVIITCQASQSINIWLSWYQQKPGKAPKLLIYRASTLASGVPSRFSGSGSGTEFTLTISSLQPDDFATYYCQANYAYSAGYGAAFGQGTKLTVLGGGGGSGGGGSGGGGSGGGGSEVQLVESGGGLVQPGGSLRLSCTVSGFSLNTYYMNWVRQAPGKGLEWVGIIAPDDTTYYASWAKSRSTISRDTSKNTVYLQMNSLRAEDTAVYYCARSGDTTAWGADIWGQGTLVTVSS

>  <result>
467000

$$$$
>  <binder>
509-max (scFv, VL and VH tied by name; also called Protein Nr; 855) scFv: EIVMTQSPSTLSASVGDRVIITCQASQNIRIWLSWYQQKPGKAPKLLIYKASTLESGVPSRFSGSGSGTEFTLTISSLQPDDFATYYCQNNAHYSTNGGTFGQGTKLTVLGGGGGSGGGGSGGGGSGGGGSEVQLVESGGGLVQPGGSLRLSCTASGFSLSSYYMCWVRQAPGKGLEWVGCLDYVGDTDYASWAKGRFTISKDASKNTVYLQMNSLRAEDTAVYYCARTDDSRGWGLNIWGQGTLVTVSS

>  <result>
742000

$$$$
>  <binder>
567-max (scFv, VL and VH tied by name; also called Protein Nr; 874) scFv: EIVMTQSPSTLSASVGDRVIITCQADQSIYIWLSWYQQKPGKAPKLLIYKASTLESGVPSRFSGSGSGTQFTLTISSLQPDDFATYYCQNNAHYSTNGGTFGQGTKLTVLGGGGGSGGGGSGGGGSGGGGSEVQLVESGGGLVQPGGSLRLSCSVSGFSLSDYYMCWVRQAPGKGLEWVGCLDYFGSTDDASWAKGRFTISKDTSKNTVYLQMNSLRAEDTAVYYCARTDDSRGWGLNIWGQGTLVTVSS

>  <result>
1.13e+06

$$$$
>  <binder>
578-max (scFv, also called EP578max; #821) scFv: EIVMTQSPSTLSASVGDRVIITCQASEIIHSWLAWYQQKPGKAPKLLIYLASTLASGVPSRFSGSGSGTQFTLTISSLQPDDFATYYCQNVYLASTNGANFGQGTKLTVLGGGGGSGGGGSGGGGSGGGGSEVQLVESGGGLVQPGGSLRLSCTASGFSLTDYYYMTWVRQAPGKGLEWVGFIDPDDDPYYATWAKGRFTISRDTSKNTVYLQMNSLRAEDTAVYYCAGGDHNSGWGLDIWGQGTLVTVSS

>  <result>
587000

$$$$
